- system tested: human ApoC3 (human)
- Sequence (chain, as listed by the source): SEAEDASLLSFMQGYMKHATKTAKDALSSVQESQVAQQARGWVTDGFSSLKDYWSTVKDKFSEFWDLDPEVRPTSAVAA
- protocol description: SPR pH 5.5
pKd: −log10 of the molar value.
Rule: pKd of 9 or more gives YES; anything lower gives NO.

binder="mAb20 (antibody, V domains shown) VH: QLVESGGGLVQPGGSLRLSCAASGFTFSTYSMRWVRQAPGKGLEWVSSIHTDAGGTAYRDSVKGRFTISRDNAKNTLYLQMNNLRPEDTAVYYCVIAGYSDWGQGTLVTVSS VL: DIVMTQSPGSLSVTPGEPASISCKTSQGLVHSGGKTYFYWFLQKPGQSPQQLIYQVSNRASGVPDRFTGSGSGTDFTLKISGVEAEDAGVYYCAHGTYYPHTFGQGTRLEIK" group=NO
binder="mAb12 (antibody, V domains shown) VH: QLVESGGGLVQPGGSLRLSCAASGFTFSTYSMRWVRQVPGKGLEWVSSIHTDAGGTAYRDSVKGRFTISRDNAKNTLYLQMNSLRPEDTAIYYCVIAGYSDWGQGTLVTVSS VL: DIVMTQSPLSLSVTPGEPASISCKTSQGLVHSDGKTYFYWFLQKPGQSPQQLIYQVSNRASGVPDRFTGSGSGTDFTLKISRVKAEDVGVYYCAHGTYYPHTFGQGTRLEIK" group=YES
binder="mAb10 (antibody, V domains shown) VH: QLVESGGGLVQPGGSLRLSCAASGFTFSTYSMRWVRQVPGKGLEWVSSIHTEGGGTAYRDSVKGRFTISRDNAKNTLYLQMNNLRAEDTAVYYCVIAGYSDWGQGTLVTVSS VL: DIVMTQSPLSLSVVPGEPASISCKTSQGLVHSDGKTYFYWFLQKPGQSPQQLIYQVSNRASGVPDRFSGSGSGTDFTLKISRVEAEDVGVYYCAHGTYYPHTFGQGTRLEIK" group=YES
binder="mAb15 (antibody, V domains shown) VH: QLVESGGGLVQPGGSLRLSCAASGFTFGTYSMRWVRQAPGKGLEWVSSIHTEAGGTAYRDSVKGRFTISRDNAKNTLYLQMNNLKAEDTAIYYCVIAGYSDWGQGTQVTVSS VL: DIVMTQSPLSLPVTPGESASISCKTSQGLVHSGGKTYFYWFLQKPGQSPQQLIYQVSNRASGVPDRFTGSGSGTDFTLKISRVEAEDAGVYYCAQGTYYPHTFGSGTRLEIK" group=YES
binder="mAb13 (antibody, V domains shown) VH: QLLESGGGLVQPGGSLRLSCAASGFTFSTYSMRWVRQVPGKGLEWVSSIHTEGGGTAYRDSVKGRFTISRDNSKNTLYLQMNSLRAEDTAVYYCVIAGYSDWGQGTLVTVSS VL: DIVMTQSPLSLPVTPGEPASISCKTSQGLVHSDGKTYFYWYLQKPGQSPQLLIYQVSNRASGVPDRFSGSGSGTDFTLKISRVEAEDVGVYYCAHGTYYPHTFGQGTRLEIK" group=NO

Given mAb4 (antibody, V domains shown) VH: QLVESGGGLVQPGGSLRLSCAASGFTFGTYSMRWVRQAPGKGLEWVSSIHTEGGGTAYRDSVKGRFTISRDNAKNTLYLQMNSLRAEDTAIYYCVIAGYSDWGQGTLVTVSS VL: DIVMTQSPLSLPVTPGESASISCKTSQGLVHSDGKTYFYWFLQKPGQSPQQLIYQVSNRASGVPDRFSGSGSGTDFTLKISRVKAEDAGVYYCAHGTYYPHTFGQGTRLEIK , state whether its pKd is at least 9.
YES

Given mAb14 (antibody, V domains shown) VH: QLLESGGGLVQPGGSLRLSCAASGFTFGTYSMRWVRQVPGKGLEWVSSIHTEGGGTAYRDSVKGRFTISRDNSKNTLYLQMNSLRAEDTAVYYCVIAGYSDWGQGTLVTVSS VL: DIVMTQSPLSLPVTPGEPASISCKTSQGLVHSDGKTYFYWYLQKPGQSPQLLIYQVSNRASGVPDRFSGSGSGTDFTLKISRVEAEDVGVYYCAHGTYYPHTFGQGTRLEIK , state whether its pKd is at least 9.
NO

Given mAb11 (antibody, V domains shown) VH: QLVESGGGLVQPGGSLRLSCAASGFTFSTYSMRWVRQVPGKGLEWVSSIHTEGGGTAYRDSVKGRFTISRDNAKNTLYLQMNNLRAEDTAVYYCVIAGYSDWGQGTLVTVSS VL: DIVMTQSPLSLSVTPGEPASISCKTSQGLVHSDGKTYFYWFLQKPGQSPQQLIYQVSNRASGVPDRFSGSGSGTDFTLKISRVEAEDVGVYYCAHGTYYPHTFGQGTRLEIK , state whether its pKd is at least 9.
YES

Given mAb2 (antibody, V domains shown) VH: QLVESGGGLVQPGGSLRLSCAASGFTFGTYSMRWVRQVPGKGLEWVSSIHTEGGGTAYRDSVKGRFTISRDNAKNTLYLQMNSLRAEDTAIYYCVIAGYSDWGQGTLVTVSS VL: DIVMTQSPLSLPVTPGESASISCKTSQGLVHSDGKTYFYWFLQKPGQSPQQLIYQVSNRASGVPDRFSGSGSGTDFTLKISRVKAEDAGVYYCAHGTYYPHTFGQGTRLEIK , state whether its pKd is at least 9.
YES
